// data source = PubChem BioAssay (NCI)

In this section we review reported TGI values for a set of molecules.
Test system: SF-539 CNS
PROTOCOL NOTES: NCI tumour cell line growth inhibition, 48 h
Kindly provide the numeric value in µM only, without the unit symbol.

Field: example entries. Status: answers known.
1. Nc1n[nH]c2cccc(C#Cc3cccc(C(=O)Nc4cc(CN5CCOCC5)cc(C(F)(F)F)c4)c3)c12 ... 12
2. COc1cc(Oc2nc3c(N)cc(C(F)(F)F)cc3nc2-c2ccccc2)cc(OC)c1OC ... 14.3
3. COc1ccc2c(c1)C(C)Cc1c(Cl)nc(C)nc1N2C (configuration not stated) ... 6.11

Lookup: Param readout= TGI; system= SF-539 CNS; entry= "C/C=C/[C@@H]1OC(=O)C2=C[C@@H](O)[C@@H](/C=C/C)O[C@H]21" ; returns value.
Found: 3.49

Lookup: What do we get for "COc1ccc(-c2nn(-c3cccc(Cl)c3)cc2-c2cc(-c3ccccc3)nc(N)n2)cc1" ?
Found: 27.7

Lookup: What do we get for C/C=C/C=C/CCCCCCCCCCCCCC1(OC)C=CC(CC(=O)OC)OO1 (configuration not stated) ?
Found: 28.6

Lookup: What do we get for "O=C1Nc2ccccc2/C1=C/c1c(Cl)[nH]c2ccc(O)cc12" ?
Found: 2.16

Lookup: What do we get for "CSC1(SC2=NCCN2)SC2(NCCN2)S1" ?
Found: 56.5

Lookup: What do we get for "Oc1ccc(/C=C/c2ccc3cccc(O)c3n2)cc1O" ?
Found: 9.46

* * *

Test system: HOP-92 NSCLC
PROTOCOL NOTES: NCI tumour cell line growth inhibition, 48 h; in the data active means GI50 below about 0.43 µM; inactive means the rest
Answer with one of the outcomes given here: 1.0 for active, 0.0 for inactive

Use the examples below as a reference point.
1) Cn1ccnc1C(=O)/C=C/c1ccc(CC(=O)Nc2ccc(C(F)(F)F)cc2)cc1 ... 0.0
2) CN(C)CC1CCCCCC(CN(C)C)C1=O (centres undefined) ... 0.0
3) COc1ccc(-c2nn(-c3cccc(Cl)c3)cc2-c2cc(-c3ccccc3)nc(N)n2)cc1 ... 0.0
4) CCCOC(=O)CCn1c(SC)nc2[nH]cc(-c3ccccc3)c2c1=O ... 0.0
5) CS(=O)(=O)Nc1ccc(N=Cc2c(O)[nH]c3ccccc23)cc1 ... 0.0
6) CC(C)c1ccc(Nc2nccc(-c3cnn4ncccc34)n2)cc1 ... 0.0

Lookup: Which outcome was entered for the molecule "CC(C)(C#N)c1cc(C(=O)Nc2cc(Nc3ncccc3-c3ncnc4nc[nH]c34)ccc2F)cc(C(F)(F)F)c1" in this test?
Found: 1.0

Lookup: What do we get for "O=C(CN1CCN(c2ccccc2)CC1)N1CCN(c2nnc(-c3ccc(Cl)cc3)c(-c3ccc(Cl)cc3)n2)CC1" ?
Found: 0.0

Lookup: What do we get for Nc1n[nH]c2ccc([C@@H]3Nc4ccc5[nH]ncc5c4[C@H]4C5C=CC(C5)[C@@H]34)cc12 (some centres undefined) ?
Found: 0.0

* * *

In this section we review reported TGI values for a set of molecules.
System: HCT-116 colon
PROTOCOL NOTES: NCI tumour cell line growth inhibition, 48 h
Kindly provide the numeric value in µM only, without the unit symbol.

Field: example entries. Status: answers known.
1) Clc1nc(Cl)c(-c2ccccc2)c(Cl)n1 ... 3.6
2) COc1ccc(C(=O)/C=C/c2cccnc2)cc1OC ... 16.3
3) Cc1[nH]c2ccccc2c1CCNCc1ccc(/C=C/C(=O)NO)cc1 ... 0.0142

Lookup: Param readout= TGI; system= HCT-116 colon; entry= NC(=S)N/N=C1\c2ccccc2CCC1CCC1(O)CCc2ccccc2C1=O (configuration not stated) ; returns value.
Found: 40.2

Lookup: What do we get for "CSc1ccccc1C#Cc1ccccc1C#CCCCCO" ?
Found: 31.4

Lookup: What do we get for "c1ccc2cc(CNCCOCCOCCNCc3ccc4ccccc4c3)ccc2c1" ?
Found: 3.08

Lookup: What do we get for "Cc1cn2c(/C=N/Nc3ccccn3)c(-c3ccc(Cl)c([N+](=O)[O-])c3)nc2s1" ?
Found: 18.4

Lookup: What do we get for C/C=C/C=C/CCCCCCCCCCCCCC1(OC)C=CC(CC(=O)OC)OO1 (configuration not stated) ?
Found: 21.7

Lookup: What do we get for C=C1CCC2C3(C)COC(c4ccccc4Br)OC3CCC2(C)C1C/C=C1/C(=O)OCC1OC(C)=O (configuration not stated) ?
Found: 0.751
